# assay-system: T1, human ROR2 expressed on the cell surface (human, UniProt Q01974 34-943)
# T1 construct: Endogenous ROR2 of human tumour cell lines; also called cell surface ROR2; ROR2 on tumour cell lines
# T1 sequence (Q01974 34-943 limits assumed): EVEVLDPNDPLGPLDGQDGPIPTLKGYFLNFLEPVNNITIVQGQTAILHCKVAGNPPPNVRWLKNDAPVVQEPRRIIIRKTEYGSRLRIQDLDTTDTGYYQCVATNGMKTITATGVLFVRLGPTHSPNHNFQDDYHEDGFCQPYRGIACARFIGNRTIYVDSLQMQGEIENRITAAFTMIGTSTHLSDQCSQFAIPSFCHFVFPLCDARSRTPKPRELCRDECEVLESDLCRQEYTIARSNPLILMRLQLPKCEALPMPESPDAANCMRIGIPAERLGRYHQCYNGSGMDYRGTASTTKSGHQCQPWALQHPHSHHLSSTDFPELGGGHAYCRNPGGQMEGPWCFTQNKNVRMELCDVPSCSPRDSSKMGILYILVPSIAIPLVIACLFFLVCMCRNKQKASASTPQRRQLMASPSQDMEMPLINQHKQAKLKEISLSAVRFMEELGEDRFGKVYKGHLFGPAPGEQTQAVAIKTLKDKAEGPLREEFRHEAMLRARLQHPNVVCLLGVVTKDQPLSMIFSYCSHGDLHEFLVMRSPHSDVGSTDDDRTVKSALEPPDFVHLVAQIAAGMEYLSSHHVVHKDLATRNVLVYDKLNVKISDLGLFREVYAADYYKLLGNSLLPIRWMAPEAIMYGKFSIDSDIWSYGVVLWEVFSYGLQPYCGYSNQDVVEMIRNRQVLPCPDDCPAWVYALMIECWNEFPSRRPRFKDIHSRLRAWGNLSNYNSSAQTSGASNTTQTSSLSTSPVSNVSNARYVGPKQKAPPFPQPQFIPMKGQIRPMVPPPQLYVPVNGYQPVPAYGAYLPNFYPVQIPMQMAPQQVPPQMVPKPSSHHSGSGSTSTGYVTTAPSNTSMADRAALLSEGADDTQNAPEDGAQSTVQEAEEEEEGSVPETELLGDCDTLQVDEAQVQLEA
# procedure-details: flow cytometry, NMB7 cells (neuroblastoma)
# Parameters: unit not given here
test-readout: binding intensity
Give bare numbers.

binder	binding intensity
ROR2-27 full length human IgG1 antibody (antibody, V domains shown, also called clone #27; clone #027 IgG1) VH: QVQLVESGAEVKKPGESLKISCKASGYSFSNYWIGWVRQMPGKGLEWMGIIYPDDSDTRYSPSFQGQVTISADKSISTAYLQWYSLKVADTAKYYCVRPRGAFDIWGQGTTVTVSS VL: QSVLTQPPSVSGAPGQRVTISCTGSSSNIGAGHAVHWYQQLPGTAPKLLIYDNANRPSGVPDRFSGSQSGTSASLAITGLQTGDEADYYCGTWDDSPSAYVFGTGTKVTVLG	23

## Task Quick one: give measured binding intensity for ROR2-240 full length human IgG1 antibody (antibody, V domains shown, also called clone #240 IgG1) VH: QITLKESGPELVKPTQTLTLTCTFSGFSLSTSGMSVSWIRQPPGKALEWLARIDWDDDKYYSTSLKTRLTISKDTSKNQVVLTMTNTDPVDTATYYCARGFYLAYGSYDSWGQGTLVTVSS VL: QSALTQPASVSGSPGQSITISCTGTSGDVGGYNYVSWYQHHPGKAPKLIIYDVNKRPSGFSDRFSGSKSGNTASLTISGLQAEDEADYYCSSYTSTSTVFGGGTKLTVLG
## Result 33
